- run.description: Karl-Fisher (KF) water determination of isolated solid
- Type: physicochemical
- condition.set: OXY133 polymorph sample; method, processing point and temperature differ per item of Table 15
attribute.measured: KF (water content determined by Karl Fischer water determination method)
Reply with the number and its unit after it.

Use the examples below as a reference point.
- molecule: "CCCCCC[C@](C)(O)[C@H]1CC[C@H]2[C@@H]3C[C@H](O)[C@H]4C[C@@H](O)CC[C@]4(C)[C@H]3CC[C@@]21C [Form 2891-8-3]"
  recorded.value: "3.25%"
- molecule: "CCCCCC[C@](C)(O)[C@H]1CC[C@H]2[C@@H]3C[C@H](O)[C@H]4C[C@@H](O)CC[C@]4(C)[C@H]3CC[C@@]21C [Form 2891-9-3]"
  recorded.value: "3.83%"

Next molecule, KF (water content determined by Karl Fischer water determination method) to be filled in.
State its KF (water content determined by Karl Fischer water determination method) for this molecule: CCCCCC[C@](C)(O)[C@H]1CC[C@H]2[C@@H]3C[C@H](O)[C@H]4C[C@@H](O)CC[C@]4(C)[C@H]3CC[C@@]21C [Form 2891-10-3]
4.02%
